Cited source: ChEMBL document CHEMBL3137667

# measurement.setup: human
# Hepatotoxicity (cytolytic) listing for each entry below

compound | Hepatotoxicity (cytolytic)
CN(C)C(=O)OC1N=C(c2ccccc2)c2cc(Cl)ccc2N(C)C1=O (configuration not stated) | 1
CO[C@@H]1[C@@H](N)[C@@H](O[C@H]2[C@H](Oc3cccc4c(O)c5c(=O)oc6ccc(C)c7c(=O)oc(c34)c5c67)O[C@H](C)[C@H](O)[C@]2(C)O)O[C@H](C)[C@@H]1O | 0
C1CCC(C(CC2CCCCN2)C2CCCCC2)CC1 (configuration not stated) | 9
CCCCCNCC(N)=O [MILACEMIDE] | 1
CCN1CCN(C(=O)N[C@@H](C(=O)N[C@@H]2C(=O)N3[C@@H]2SC(C)(C)[C@@H]3C(=O)O)c2ccccc2)C(=O)C1=O | 1
COc1ccc(OC)c(Cc2cnc3nc(N)nc(N)c3c2C)c1 | 0
CC(C)C[C@H](NC(=O)[C@@H](COC(C)(C)C)NC(=O)[C@H](Cc1ccc(O)cc1)NC(=O)[C@H](CO)NC(=O)[C@H](Cc1c[nH]c2ccccc12)NC(=O)[C@H](Cc1cnc[nH]1)NC(=O)[C@@H]1CCC(=O)N1)C(=O)N[C@@H](CCCNC(=N)N)C(=O)N1CCC[C@H]1C(=O)NNC(N)=O | 0

###

# measurement.setup: human
Measured Hepatotoxicity (choleostasis) of individual entries
value.type: Hepatotoxicity (choleostasis)

molecule | recorded.value
Cc1ccccc1N1C(=O)c2cc(S(N)(=O)=O)c(Cl)cc2NC1C (centres undefined) | 1
CC(C)=CCC/C(C)=C/CC/C(C)=C/CCC(=O)OC/C=C(\C)CCC=C(C)C [GEFARNATE] | 0
CCCCCN(C)CCC(O)(P(=O)(O)O)P(=O)(O)O | 0
Cc1cnc(NC(=O)C2=C(O)c3ccccc3S(=O)(=O)N2C)s1 | 0
Cc1onc(-c2c(Cl)cccc2Cl)c1C(=O)N[C@@H]1C(=O)N2[C@@H]1SC(C)(C)[C@@H]2C(=O)O | 3
Nc1ncc2ncn(COCCO)c2n1 | 0
CCn1cc(C(=O)O)c(=O)c2cc(F)c(N3CCN(C)CC3)cc21 | 0
O=NN(CCCl)C(=O)NCCCl | 1
C=C[C@H]1C[N@@]2CC[C@H]1C[C@H]2[C@H](O)c1ccnc2ccc(OC)cc12 | 2
O[C@H]1[C@H]2[C@H](O)CCCN2C[C@H]1O | 0
CC(C)COCC(CN(Cc1ccccc1)c1ccccc1)N1CCCC1 (centres undefined) | 0
CO/N=C(\C(=O)N[C@@H]1C(=O)N2C(C(=O)[O-])=C(C[N+]3(C)CCCC3)CS[C@H]12)c1csc(N)n1 | 0
CN(Cc1cnc2nc(N)nc(N)c2n1)c1ccc(C(=O)N[C@@H](CCC(=O)O)C(=O)O)cc1 [METHOTREXATE] | 2
CNCCON=c1c2ccccc2ccc2ccccc12 | 1
NC(N)=Nc1nc(CSCCN/C=N/S(=O)(=O)c2ccc(Br)cc2)cs1 | 0
CCOC(=O)n1ccn(C)c1=S | 14
CCCc1cc(C(N)=S)ccn1 [PROTIONAMIDE] | 0
Nc1nc2c(ncn2COCCO)c(=O)[nH]1 | 0
COc1ccc(CCN(C)CCCC(C#N)(c2cc(OC)c(OC)c(OC)c2)C(C)C)cc1OC (centres undefined) | 0
Cc1ccc2c(c1)C(N1CCN(C)CC1)=Nc1ccccc1S2 | 0
COc1ccc(Cc2nccc3cc(OC)c(OC)cc23)cc1OC | 6
Nc1ccn([C@@H]2O[C@H](CO)[C@@H](O)C2(F)F)c(=O)n1 | 3
CN1CCC(=C2c3ccccc3CC(=O)c3sccc32)CC1 | 0
CCC[C@H](N[C@@H](C)C(=O)N1[C@H](C(=O)O)C[C@@H]2CCCC[C@@H]21)C(=O)OCC | 0
Nc1ccc(S(=O)(=O)Nc2ccccn2)cc1 | 0
C1CC1 | 0
CC(=O)NCCOC(=O)C(Oc1cccc(C(F)(F)F)c1)c1ccc(Cl)cc1 (centres undefined) [HALOFENATE] | 0
NC(=O)NC(=O)Cc1ccccc1 [PHENACEMIDE] | 0
FC(F)OC(Cl)C(F)(F)F (centres undefined) | 1
Cc1ncc([N+](=O)[O-])n1CCO | 2
C#CCN(C)[C@H](C)Cc1ccccc1 | 1
CCNC1=Nc2ccc(Cl)cc2C(C)(c2ccccc2)O1 (centres undefined) | 0
CN(C)/N=N/c1[nH]cnc1C(N)=O | 2
CC#CCC(C)[C@H](O)/C=C/[C@@H]1[C@H]2c3cccc(CCCC(=O)O)c3O[C@H]2C[C@H]1O (some centres undefined) | 0
Cc1ncc(CSSCc2cnc(C)c(O)c2CO)c(CO)c1O | 4
CC(O)(CS(=O)(=O)c1ccc(F)cc1)C(=O)Nc1ccc(C#N)c(C(F)(F)F)c1 (centres undefined) [BICALUTAMIDE] | 0
CS(=O)(=O)OCCCCOS(C)(=O)=O | 3
N=C(N)c1ccc(OCCCCCOc2ccc(C(=N)N)cc2)cc1 | 0
Nc1ccc(C(=O)O)c(O)c1 | 9

###

Reported Hepatotoxicity (benign tumour) values for a set of compounds
# measurement.setup: human
value.type: Hepatotoxicity (benign tumour)

compound | value.type | recorded.value
COC(=O)C1=C(C)NC(C)=C(C(=O)OCC(C)C)C1c1ccccc1[N+](=O)[O-] (configuration not stated) | Hepatotoxicity (benign tumour) | 0
CCOC(=O)C1=C(C)NC(C)=C(C(=O)OC)C1c1cccc(Cl)c1Cl (configuration not stated) | Hepatotoxicity (benign tumour) | 0
C[C@](N)(Cc1ccc(O)c(O)c1)C(=O)O | Hepatotoxicity (benign tumour) | 0
COc1ccc2nc(NC(=O)Nc3ccccc3)sc2c1 | Hepatotoxicity (benign tumour) | 0
Cc1cc(C)cc(OCC2CNC(=O)O2)c1 (configuration not stated) | Hepatotoxicity (benign tumour) | 0
Cc1oc(=O)oc1CN1CCN(c2cc3c(cc2F)c(=O)c(C(=O)O)c2n3C(C)S2)CC1 (configuration not stated) | Hepatotoxicity (benign tumour) | 0
CC[C@H](C)[C@H]1NC(=O)[C@@H](NC(=O)[C@@H](CC(C)C)N(C)C(=O)[C@@H]2CCCN2C(=O)C(C)O)[C@@H](C)OC(=O)[C@H](Cc2ccc(OC)cc2)N(C)C(=O)[C@@H]2CCCN2C(=O)[C@H](CC(C)C)NC(=O)[C@@H](C)C(=O)[C@H](C(C)C)OC(=O)C[C@@H]1O (some centres not stated) | Hepatotoxicity (benign tumour) | 0

###

# measurement.setup: human, serum
The following ranges of Hepatotoxicity (moderate) define the classes used here: lower level: < 1; middle level: ≥ 1 and < 6; upper level: ≥ 6

molecule | assigned.class
CCOC(=O)Nc1ccc2c(c1)N(C(=O)CCN1CCOCC1)c1ccccc1S2 | middle level
CC(COc1ccccc1)NN (stereo not drawn) | lower level
N#CN [CYANAMIDE] | lower level
CC[C@H](c1ccc(O)cc1)[C@@H](CC)c1ccc(O)cc1 | lower level
Cc1ccc(C(=O)Nc2ccc(S(=O)(=O)O)c3cc(S(=O)(=O)O)cc(S(=O)(=O)O)c23)cc1NC(=O)c1cccc(NC(=O)Nc2cccc(C(=O)Nc3cc(C(=O)Nc4ccc(S(=O)(=O)O)c5cc(S(=O)(=O)O)cc(S(=O)(=O)O)c45)ccc3C)c2)c1 | upper level
Nc1ncnc2c1ncn2[C@@H]1O[C@H](CO)[C@@H](O)[C@@H]1O | middle level
C[C@H](CCC(=O)O)[C@H]1CC[C@H]2[C@@H]3[C@H](O)C[C@@H]4C[C@H](O)CC[C@]4(C)[C@H]3CC[C@]12C | upper level
CC(CN(C)C)CN1c2ccccc2Sc2ccc(C#N)cc21 (stereo not drawn) | lower level
CC1(C)S[C@@H]2[C@H](NC(=O)[C@H](N)c3ccc(O)cc3)C(=O)N2[C@H]1C(=O)O | upper level
CN(C)CCCC1(c2ccc(F)cc2)OCc2cc(C#N)ccc21 (stereo not drawn) | middle level
CC(C)c1c(C(=O)Nc2ccccc2)c(-c2ccccc2)c(-c2ccc(F)cc2)n1CC[C@@H](O)C[C@@H](O)CC(=O)O | upper level
CC1=C(/C=C/C(C)=C/C=C/C(C)=C/CO)C(C)(C)CCC1 | upper level

###

Listing of recorded Hepatotoxicity (time to onset) by entry.
# method.notes: Times to onset, minimal and maximal, observed in the indexed observations. [column 'DELAI' in source]
# measurement.setup: human

compound | Hepatotoxicity (time to onset)
O=C(CCNNC(=O)c1ccncc1)NCc1ccccc1 [NIALAMIDE] | 3 weeks
Nc1nc(=O)[nH]cc1F | 2 weeks - 2 months
Nc1ncn([C@@H]2O[C@H](CO)[C@@H](O)[C@H]2O)c(=O)n1 | 1 week
N[C@@H](C(=O)N[C@@H]1C(=O)N2C(C(=O)O)=C(Cl)CC[C@H]12)c1ccccc1 [LORACARBEF ANHYDROUS] | 1 week - 6 weeks
CNCCCN1c2ccccc2CCc2ccccc21 | 1 week - 1 month
CS(=O)(=O)c1ccc(C2=C(c3ccccc3)C(=O)OC2)cc1 | 9 weeks
CN1CCN2c3ncccc3Cc3ccccc3C2C1 (centres undefined) | 1 year - 3 years
COC(=O)Nc1nc2ccc(C(=O)c3ccccc3)cc2[nH]1 | 2 days - 2 months
O=C(O)CCNC(=O)c1ccc(/N=N/c2ccc(O)c(C(=O)O)c2)cc1 [BALSALAZIDE] | 8 days
O=C1CN(/N=C/c2ccc(-c3ccc([N+](=O)[O-])cc3)o2)C(O)=N1 | 7 days - 1 year
CN(C)CC/C=C1/c2ccccc2Sc2ccc(Cl)cc21 | 1 week
COc1ccc2nc(NC(=O)Nc3ccccc3)sc2c1 | 1 week - 1 month
N[C@@H](Cc1cc(I)c(Oc2cc(I)c(O)c(I)c2)c(I)c1)C(=O)O | 12 days - 4 years
COc1cc([C@@H]2c3cc4c(cc3[C@@H](O[C@@H]3O[C@@H]5CO[C@@H](C)O[C@H]5[C@H](O)[C@H]3O)[C@H]3COC(=O)[C@H]23)OCO4)cc(OC)c1O [ETOPOSIDE] | 1 week - 5 weeks
CN1CCOC(c2ccccc2)c2ccccc2C1 (centres undefined) | 4 weeks
C=C[C@H]1C[N@@]2CC[C@H]1C[C@@H]2[C@@H](O)c1ccnc2ccc(OC)cc12 | 1 day - 7 months
CC(Cc1ccccc1)NCc1ccccc1Cl (centres undefined) | 2 weeks
Cc1ncc(CSSCc2cnc(C)c(O)c2CO)c(CO)c1O | 1 day - 2 months
Nc1c2c(nc3ccccc13)CCCC2O (centres undefined) | 4 weeks - 3 months
